measurement_target: T1, CRBN, Q96SW2;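 further: pooled lentiviral library of zinc finger degron-EGFP fusions in mCherry-positive Jurkat cells, FACS-sorted after compound exposure, with degron abundance counted by next-generation sequencing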
T1 chain: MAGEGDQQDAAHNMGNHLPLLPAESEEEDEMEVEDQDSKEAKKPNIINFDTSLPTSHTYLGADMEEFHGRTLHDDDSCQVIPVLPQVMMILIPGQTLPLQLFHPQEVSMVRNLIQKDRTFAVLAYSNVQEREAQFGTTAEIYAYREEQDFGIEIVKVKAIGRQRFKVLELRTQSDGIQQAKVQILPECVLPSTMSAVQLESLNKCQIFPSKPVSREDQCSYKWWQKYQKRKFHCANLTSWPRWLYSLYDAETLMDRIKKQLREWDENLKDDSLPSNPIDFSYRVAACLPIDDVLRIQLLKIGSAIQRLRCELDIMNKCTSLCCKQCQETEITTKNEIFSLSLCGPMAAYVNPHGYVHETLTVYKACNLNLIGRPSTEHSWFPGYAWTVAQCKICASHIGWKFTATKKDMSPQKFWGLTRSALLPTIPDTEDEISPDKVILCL
test: log2 fold change of degron read counts, EGFP-low vs EGFP+ sorted cells (limma voom), compound-induced degradation; higher = more compound-induced degradation of the degron-EGFP fusion; degrons are variants of IKZF1/3 zinc finger 2; compound dose not given here
measurement_context: Jurkat; 18 h; compound: compound 19 (5-tert-butyl-thalidomide)
In all, about 8,300 sequences were measured (“log2 fold change of degron read counts, EGFP-low vs EGFP+ sorted cells (limma voom), compound-induced degradation”: median about -1.1, highest 2% from about 3.2 on). The sample as a whole holds a higher share of the highest values than the screen did.
Criterion: log2 fold change of degron read counts meeting or surpassing 3. Met: 1. Not met: -1.

Query string: Is log2 fold change of degron read counts at least 3? Consider FECDICGASFTQKGNLLRHIKL [46F_47E_49D_50I_52G_53A_54S_55F_67L_, Q9UKT9]
Result string: -1

Query string: Is log2 fold change of degron read counts at least 3? Consider FVCEVCGASFTQKGNLLRHIKL [46F_47V_49E_50V_52G_53A_54S_55F_67L_, Q9UKT9]
Result string: -1

Query string: Is log2 fold change of degron read counts at least 3? Consider FACEVCGASFTQKGNLLRHIKL [46F_47A_49E_50V_52G_53A_54S_55F_67L_, Q9UKT9]
Result string: 1

Query string: Is log2 fold change of degron read counts at least 3? Consider FLCPICGASFTQKGNLLRHIKL [46F_47L_49P_50I_52G_53A_54S_55F_67L_, Q9UKT9]
Result string: -1

Query string: Is log2 fold change of degron read counts at least 3? Consider FYCPICGASFTQKGNLLRHIKL [46F_47Y_49P_50I_52G_53A_54S_55F_67L_, Q9UKT9]
Result string: 1

Query string: Is log2 fold change of degron read counts at least 3? Consider FNCPICGASFTQKGNLLRHIKL [46F_47N_49P_50I_52G_53A_54S_55F_67L_, Q9UKT9]
Result string: -1
